assay: Stability of the compound in rat plasma assessed as half life by LC-MS/MS analysis; type: ADME, cell-free
Assay metric: half-life (h)
Give the value in h but do not write h after it.

COc1ccc2cc([C@H](C)C(=O)[S-])ccc2c1.[Na+] : 6.73
COc1ccc2c(c1)c(CC(=O)[S-])c(C)n2C(=O)c1ccc(Cl)cc1.[Na+] : 21.3
CC(C(=O)[S-])c1ccc(-c2ccccc2)c(F)c1.[Na+] (stereo not given) : 4.67
O=C([S-])c1ccccc1.[Na+] : 2.17

half-life for O=C([S-])Cc1ccccc1Nc1c(Cl)cccc1Cl.[Na+] ?
1.45

====

biological target: Prostaglandin G/H synthase 1 (Ovis aries); test: Inhibition of ovine COX1 assessed as reduction in PGF2alpha production using arachidonic acid as substrate preincubated with enzyme for 10 mins followed by substrate addition and measured after 2 mins by ELISA
Sequence (P05979 whole entry): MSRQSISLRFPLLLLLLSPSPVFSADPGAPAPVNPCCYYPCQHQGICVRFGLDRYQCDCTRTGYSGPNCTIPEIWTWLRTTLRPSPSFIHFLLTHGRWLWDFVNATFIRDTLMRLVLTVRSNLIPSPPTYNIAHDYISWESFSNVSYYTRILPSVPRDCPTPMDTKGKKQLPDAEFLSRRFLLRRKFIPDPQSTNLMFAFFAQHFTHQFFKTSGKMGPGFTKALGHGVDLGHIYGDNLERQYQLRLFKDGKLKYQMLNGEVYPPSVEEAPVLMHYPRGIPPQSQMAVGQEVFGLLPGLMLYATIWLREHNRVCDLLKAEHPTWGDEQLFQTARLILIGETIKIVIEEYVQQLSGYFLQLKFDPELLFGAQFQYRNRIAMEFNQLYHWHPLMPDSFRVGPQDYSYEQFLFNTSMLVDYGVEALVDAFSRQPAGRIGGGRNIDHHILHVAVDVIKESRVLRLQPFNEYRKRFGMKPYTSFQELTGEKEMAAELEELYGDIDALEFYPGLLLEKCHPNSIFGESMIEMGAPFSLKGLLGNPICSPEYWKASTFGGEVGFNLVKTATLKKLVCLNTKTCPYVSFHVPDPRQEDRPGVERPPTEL
Assay metric: IC50 (µM)
Give the value in µM but do not write µM after it.

CC(C(=O)[S-])c1ccc(-c2ccccc2)c(F)c1.[Na+] (centres undefined) : 0.221
COc1ccc2c(c1)c(CC(=O)[S-])c(C)n2C(=O)c1ccc(Cl)cc1.[Na+] : 0.0076
O=C([S-])Cc1ccccc1Nc1c(Cl)cccc1Cl.[Na+] : 0.0359

IC50 for COc1ccc2cc([C@H](C)C(=O)[S-])ccc2c1.[Na+] ?
1.3

====

experiment: Stability in Sprague-Dawley rat assessed as parent compound level in blood at 80 umol/kg, iv measured after 5 mins by LC-MS/MS analysis; assay type: ADME, organism-based; conditions: whole blood, dose 80 µmol/kg, read-out: Stability
Assay metric: concentration at 5 min (µM)
Give the value in µM but do not write µM after it.

concentration at 5 min for O=C([S-])c1ccccc1.[Na+] ?
113

====

experiment: Stability in Sprague-Dawley rat assessed as parent compound level in blood at 80 umol/kg, iv measured after 1 min by LC-MS/MS analysis; type: ADME, organism-based; settings: whole blood, dose 80 µmol/kg, read-out: Stability
Assay metric: concentration at 1 min (µM)
Give the value in µM but do not write µM after it.

concentration at 1 min for O=C([S-])c1ccccc1.[Na+] ?
439

====

biological target: Prostaglandin G/H synthase 2 (Homo sapiens, UniProt P35354); test: Inhibition of human recombinant COX2 assessed as reduction in PGF2alpha production using arachidonic acid as substrate preincubated with enzyme for 10 mins followed by substrate addition and measured after 2 mins by ELISA
Sequence (P35354 whole entry): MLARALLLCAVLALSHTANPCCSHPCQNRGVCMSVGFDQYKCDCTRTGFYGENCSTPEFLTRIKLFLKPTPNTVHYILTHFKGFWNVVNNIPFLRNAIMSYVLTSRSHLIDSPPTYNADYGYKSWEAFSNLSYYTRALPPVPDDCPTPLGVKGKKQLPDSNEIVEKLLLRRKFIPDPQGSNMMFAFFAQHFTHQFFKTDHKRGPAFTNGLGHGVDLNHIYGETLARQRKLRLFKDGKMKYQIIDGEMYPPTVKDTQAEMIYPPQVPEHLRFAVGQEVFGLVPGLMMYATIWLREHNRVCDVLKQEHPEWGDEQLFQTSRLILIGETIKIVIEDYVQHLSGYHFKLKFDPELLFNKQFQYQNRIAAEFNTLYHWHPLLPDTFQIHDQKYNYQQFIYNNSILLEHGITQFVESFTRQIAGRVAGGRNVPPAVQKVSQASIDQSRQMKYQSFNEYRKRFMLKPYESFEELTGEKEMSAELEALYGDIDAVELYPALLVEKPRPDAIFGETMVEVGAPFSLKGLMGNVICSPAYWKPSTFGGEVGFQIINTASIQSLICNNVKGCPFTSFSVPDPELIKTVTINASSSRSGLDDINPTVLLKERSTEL
Assay metric: IC50 (µM)
Give the value in µM but do not write µM after it.

IC50 for COc1ccc2cc([C@H](C)C(=O)O)ccc2c1 [NAPROXEN] ?
10.6

FYI, the data here is from ChEMBL document CHEMBL6120958.
